Ref: patent US6827926B2

test system: normal skin of CD Hairless male rats; assay type: in vivo, rat; conditions: rat, in vivo
Measured endpoint: Normal skin Response (1 μmol) (h)

CCC1=C(CC)C2=[N+]3C1=Nc1c(CC)c(CC)c4[n]1[Ga-2]31([Cl])[n]3c(c(C)c(CCC(=O)OC)c3=CC3=[N+]1C(=C4)C(C)=C3CCC(=O)OC)=C2: 24

P. CC1=Cc2cc3[n-]c(cc4nc(cc5[n-]c(cc1n2)cc5C)C(C)=C4CCC(=O)OCCCCl)c(CCC(=O)OCCCCl)c3C.[Cl-].[Ga+3]
Q. CCC1=C(C)C2=[N+]3C1=Cc1c(C)c(CC)c4[n]1[Ga-2]31([Cl])[n]3c(c(C)c(CCC(=O)NCCOC)c3=CC3=[N+]1C(=C4)C(C)=C3CCC(=O)NCCOC)=C2
R. CCOC(=O)CCC1=C(C)c2cc3[n-]c(cc4nc(cc5[n-]c(cc1n2)c(CCC(=O)OCC)c5C)C(CC)=C4C)c(CC)c3C.[Cl-].[Ga+3]
### Prompt Order the 3 compounds from highest to lowest Normal skin Response (1 μmol). In plain terms: list the labels in the order you were asked to.
### Response P, R, Q
(P: 96 h, R: 24 h, Q: 6 h)
